- System: CYP3A4
- Assay summary: clinical
- Test conditions: human, in vivo
Parameter measured: AUC(0-t) (ng·h/mL)

{"Compound": "Cc1ncc2n1-c1ccc(Cl)cc1C(c1ccccc1F)=NC2 [Midazolam, midazolam, reference compound]", "Quantitative result": 53.8}

====

- Assay summary: clinical
- Test conditions: human, in vivo, po, 900 mg

{"Mol": "CN[C@@H]1COc2c(S(=O)(=O)NC(=O)Nc3c4c(cc5c3CCC5)CCC4)cnn2C1", "Unit text": "min", "half-life": 408}

====

- Tested on: CYP3A4
- Assay summary: clinical
- Test conditions: human, in vivo

{"Compound": "Cc1ncc2n1-c1ccc(Cl)cc1C(c1ccccc1F)=NC2 [Midazolam, midazolam, reference compound]", "Cmax": "25.6 ng/mL"}

====

- Assay summary: clinical
- Test conditions: human, in vivo, po, 150 mg

{"Mol": "CN[C@@H]1COc2c(S(=O)(=O)NC(=O)Nc3c4c(cc5c3CCC5)CCC4)cnn2C1", "Unit text": "h", "half-life": 4.1}

====

- Assay summary: clinical
- Test conditions: human, in vivo, po, 1800 mg
Parameter measured: AUC(0-inf) (µg·h/mL)

{"Molecule": "CN[C@@H]1COc2c(S(=O)(=O)NC(=O)Nc3c4c(cc5c3CCC5)CCC4)cnn2C1 [GDC‐2394]", "Parameter measured": "AUC(0-inf)", "Quantitative result": 739}

====

- Assay summary: clinical
- Test conditions: human, in vivo, 900 mg, AUC0–tau, MAD 900 mg b.i.d., first dose (day 1), n = 6; mean

{"Mol": "CN[C@@H]1COc2c(S(=O)(=O)NC(=O)Nc3c4c(cc5c3CCC5)CCC4)cnn2C1", "AUC (µg·h/mL)": 301}

====

- Assay summary: clinical
- Test conditions: human, in vivo, po, 150 mg

{"Mol": "CN[C@@H]1COc2c(S(=O)(=O)NC(=O)Nc3c4c(cc5c3CCC5)CCC4)cnn2C1", "Vd/F [L]": 16.7}

====

- Assay summary: clinical
- Test conditions: human, in vivo, po, 150 mg

{"Mol": "CN[C@@H]1COc2c(S(=O)(=O)NC(=O)Nc3c4c(cc5c3CCC5)CCC4)cnn2C1", "AUC(0-t)": "53500 ng·h/mL"}

====

- Test system: CYP3A4
- Assay summary: clinical
- Test conditions: human, in vivo, 5 mg

{"Compound": "Cc1ncc2n1-c1ccc(Cl)cc1C(c1ccccc1F)=NC2 [Midazolam, midazolam, reference compound]", "Experimental target": "CYP3A4", "AUC(0-t) (ng·h/mL)": 53.4}

====

- Assay summary: clinical
- Test conditions: human, in vivo, 300 mg, C max, MAD 300 mg b.i.d., steady‐state (day 7), n = 6; mean

{"Mol": "CN[C@@H]1COc2c(S(=O)(=O)NC(=O)Nc3c4c(cc5c3CCC5)CCC4)cnn2C1", "Cmax [ng/mL]": 16400}

====

- Assay summary: clinical
- Test conditions: human, in vivo, 300 mg, AUC0–tau, MAD 300 mg b.i.d., steady‐state (day 7), n = 6; mean

{"Mol": "CN[C@@H]1COc2c(S(=O)(=O)NC(=O)Nc3c4c(cc5c3CCC5)CCC4)cnn2C1", "AUC / ng·h/mL": 92200}

====

- Assay summary: clinical
- Test conditions: human, in vivo, 900 mg, C max, MAD 900 mg b.i.d., first dose (day 1), n = 6; mean

{"Mol": "CN[C@@H]1COc2c(S(=O)(=O)NC(=O)Nc3c4c(cc5c3CCC5)CCC4)cnn2C1", "Cmax (µg/mL)": 52.7}

====

- Assay summary: clinical
- Test conditions: human, in vivo, po, 900 mg

{"Compound": "CN[C@@H]1COc2c(S(=O)(=O)NC(=O)Nc3c4c(cc5c3CCC5)CCC4)cnn2C1 [GDC‐2394]", "AUC(0-t) / µg·h/mL": 317}

====

- Assay summary: clinical
- Test conditions: human, in vivo, po, 450 mg
Parameter measured: AUC(0-inf) (µg·h/mL)

{"Mol": "CN[C@@H]1COc2c(S(=O)(=O)NC(=O)Nc3c4c(cc5c3CCC5)CCC4)cnn2C1", "Quantitative result": 138}

====

- Assay summary: clinical
- Test conditions: human, in vivo, 300 mg, AUC0–tau, MAD 300 mg b.i.d., first dose (day 1), n = 6; mean
Parameter measured: AUC (ng·h/mL)

{"Mol": "CN[C@@H]1COc2c(S(=O)(=O)NC(=O)Nc3c4c(cc5c3CCC5)CCC4)cnn2C1", "Unit text": "ng·h/mL", "Quantitative result": 82000}

====

- Assay summary: clinical
- Test conditions: human, in vivo, po, 450 mg

{"Molecule": "CN[C@@H]1COc2c(S(=O)(=O)NC(=O)Nc3c4c(cc5c3CCC5)CCC4)cnn2C1 [GDC‐2394]", "Unit text": "L", "Vd/F": 30.2}

====

- Assay summary: clinical
- Test conditions: human, in vivo, po, 450 mg

{"Mol": "CN[C@@H]1COc2c(S(=O)(=O)NC(=O)Nc3c4c(cc5c3CCC5)CCC4)cnn2C1", "Unit text": "h", "half-life": 5.8}

====

- Assay summary: clinical
- Test conditions: human, in vivo, po, 900 mg

{"Mol": "CN[C@@H]1COc2c(S(=O)(=O)NC(=O)Nc3c4c(cc5c3CCC5)CCC4)cnn2C1", "Cmax (µg/mL)": 50.4}

====

- Assay summary: clinical
- Test conditions: human, in vivo, po, 1800 mg
Parameter measured: half-life (min)

{"Compound": "CN[C@@H]1COc2c(S(=O)(=O)NC(=O)Nc3c4c(cc5c3CCC5)CCC4)cnn2C1 [GDC‐2394]", "Parameter measured": "half-life", "Quantitative result": 516}

====

- Assay summary: clinical
- Test conditions: human, in vivo, po, 900 mg

{"Mol": "CN[C@@H]1COc2c(S(=O)(=O)NC(=O)Nc3c4c(cc5c3CCC5)CCC4)cnn2C1", "Vd/F": "34.9 L"}

====

- Assay summary: clinical
- Test conditions: human, in vivo, po, 1800 mg

{"Mol": "CN[C@@H]1COc2c(S(=O)(=O)NC(=O)Nc3c4c(cc5c3CCC5)CCC4)cnn2C1", "Tmax / h": 4}

====

- Assay summary: clinical
- Test conditions: human, in vivo, 900 mg, C max, MAD 900 mg b.i.d., steady‐state (day 7), n = 6; mean

{"Mol": "CN[C@@H]1COc2c(S(=O)(=O)NC(=O)Nc3c4c(cc5c3CCC5)CCC4)cnn2C1", "Cmax (µg/mL)": 51}

====

- Tested on: CYP3A4
- Assay summary: clinical
- Test conditions: human, in vivo, 5 mg
Parameter measured: Cmax

{"Compound": "Cc1ncc2n1-c1ccc(Cl)cc1C(c1ccccc1F)=NC2 [Midazolam, midazolam, reference compound]", "Experimental target": "CYP3A4", "Parameter measured": "Cmax", "Result": "22.9 ng/mL"}

====

- Assay summary: clinical
- Test conditions: human, in vivo, po, 1800 mg
Parameter measured: Vd/F (L)

{"Mol": "CN[C@@H]1COc2c(S(=O)(=O)NC(=O)Nc3c4c(cc5c3CCC5)CCC4)cnn2C1", "Unit text": "L", "Quantitative result": 32.1}

====

- Assay summary: clinical
- Test conditions: human, in vivo, po, 150 mg

{"Mol": "CN[C@@H]1COc2c(S(=O)(=O)NC(=O)Nc3c4c(cc5c3CCC5)CCC4)cnn2C1", "Cmax": "8110 ng/mL"}

====

- Assay summary: clinical
- Test conditions: human, in vivo, po, 1800 mg

{"Mol": "CN[C@@H]1COc2c(S(=O)(=O)NC(=O)Nc3c4c(cc5c3CCC5)CCC4)cnn2C1", "Unit text": "µg/mL", "Cmax": 101}

====

- Assay summary: clinical
- Test conditions: human, in vivo, po, 450 mg
Parameter measured: Tmax (h)

{"Mol": "CN[C@@H]1COc2c(S(=O)(=O)NC(=O)Nc3c4c(cc5c3CCC5)CCC4)cnn2C1", "Unit text": "h", "Quantitative result": 2}

====

- Assay summary: clinical
- Test conditions: human, in vivo, 600 mg, T 1/2, FE 600 mg single dose, fasted period, n = 8; mean

{"Mol": "CN[C@@H]1COc2c(S(=O)(=O)NC(=O)Nc3c4c(cc5c3CCC5)CCC4)cnn2C1", "half-life / h": 5.3}

Attribution: paper PMC10499406
